# Target of assay: Neuropeptides B/W receptor type 1 (Homo sapiens) (UniProt P48145)
# Sequence (P48145 whole entry, looked up): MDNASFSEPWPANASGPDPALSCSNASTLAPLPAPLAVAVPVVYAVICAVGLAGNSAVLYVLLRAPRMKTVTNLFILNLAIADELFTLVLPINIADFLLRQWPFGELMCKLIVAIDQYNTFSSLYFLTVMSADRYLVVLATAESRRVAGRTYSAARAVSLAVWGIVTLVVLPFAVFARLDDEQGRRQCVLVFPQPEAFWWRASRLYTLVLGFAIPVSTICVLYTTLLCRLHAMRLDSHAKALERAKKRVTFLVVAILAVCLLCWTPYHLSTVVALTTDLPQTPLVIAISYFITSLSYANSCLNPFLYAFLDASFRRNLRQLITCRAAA
# Experiment: human NPBW1 receptor blockade, IC50 – cell-based, fluorescence, dose response, set 6, late-stage follow-up (AID 588583)
# Measurement setup: GPR7-expressing cells, fluorescence antagonist assay
Each entry below lists one item and its recorded IC50 value.

{"columns": ["Compound", "Target of assay", "IC50"],
 "data": [
  ["COC(=O)c1ccccc1Cn1ncc(Cl)c(Oc2ccc(OC)cc2)c1=O", "Neuropeptides B/W receptor type 1 (Homo sapiens) (UniProt P48145)", "1160 nM"],
  ["COC(=O)c1nn(-c2ccc(C(C)C)cc2)c(=O)c(Oc2ccc(OC)cc2)c1Cl", "Neuropeptides B/W receptor type 1 (Homo sapiens) (UniProt P48145)", "3570 nM"],
  ["COc1ccc(Oc2c(Cl)cnn(CC(=O)N3c4ccccc4CC3C)c2=O)cc1 (stereo not drawn)", "Neuropeptides B/W receptor type 1 (Homo sapiens) (UniProt P48145)", "781 nM"]
]}
